- runConditions: in ethyl formate, 303.15 K
reportedProperty: solubility (mole fraction)

- O=C(O)c1ccc(CO)cc1: 0.00431

====

- runConditions: in ethyl acetate, 288.15 K
reportedProperty: solubility (mole fraction)

• O=C(O)c1ccc(CO)cc1 = 0.00528

====

- runConditions: in n-butyl acetate, 288.15 K
reportedProperty: solubility (mole fraction)

- O=C(O)c1ccc(CO)cc1: 0.00463

====

- runConditions: in methanol, 283.15 K
reportedProperty: solubility (mole fraction)

- O=C(O)c1ccc(CO)cc1: 0.0282

====

- runConditions: in ethanol, 318.15 K
reportedProperty: solubility (mole fraction)

• O=C(O)c1ccc(CO)cc1 = 0.0678

====

- runConditions: in ethyl formate, 288.15 K
reportedProperty: solubility (mole fraction)

- O=C(O)c1ccc(CO)cc1: 0.00259

====

- runConditions: in water, 323.15 K
reportedProperty: solubility (mole fraction)

- O=C(O)c1ccc(CO)cc1: 0.00128

====

- runConditions: in isopropanol, 308.15 K
reportedProperty: solubility (mole fraction)

* O=C(O)c1ccc(CO)cc1 | 0.0523

====

- runConditions: in ethyl acetate, 323.15 K
reportedProperty: solubility (mole fraction)

• O=C(O)c1ccc(CO)cc1 = 0.0199

====

- runConditions: in n-butyl acetate, 298.15 K
reportedProperty: solubility (mole fraction)

• O=C(O)c1ccc(CO)cc1 = 0.00622

====

- runConditions: in isopropanol, 283.15 K
reportedProperty: solubility (mole fraction)

* O=C(O)c1ccc(CO)cc1 | 0.0268

====

- runConditions: in n-propanol, 283.15 K
reportedProperty: solubility (mole fraction)

• O=C(O)c1ccc(CO)cc1 = 0.0236

====

- runConditions: in methanol, 308.15 K
reportedProperty: solubility (mole fraction)

* O=C(O)c1ccc(CO)cc1 | 0.0535

====

- runConditions: in water, 293.15 K
reportedProperty: solubility (mole fraction)

* O=C(O)c1ccc(CO)cc1 | 0.0003

====

- runConditions: in isopropyl acetate, 303.15 K
reportedProperty: solubility (mole fraction)

• O=C(O)c1ccc(CO)cc1 = 0.00827

====

- runConditions: in methanol, 323.15 K
reportedProperty: solubility (mole fraction)

* O=C(O)c1ccc(CO)cc1 | 0.078

====

- runConditions: in methanol, 288.15 K
reportedProperty: solubility (mole fraction)

• O=C(O)c1ccc(CO)cc1 = 0.0323

====

- runConditions: in n-butyl acetate, 323.15 K
reportedProperty: solubility (mole fraction)

- O=C(O)c1ccc(CO)cc1: 0.0158

====

- runConditions: in ethyl formate, 313.15 K
reportedProperty: solubility (mole fraction)

* O=C(O)c1ccc(CO)cc1 | 0.00704

====

- runConditions: in ethyl acetate, 313.15 K
reportedProperty: solubility (mole fraction)

- O=C(O)c1ccc(CO)cc1: 0.0133

====

- runConditions: in isopropanol, 288.15 K
reportedProperty: solubility (mole fraction)

- O=C(O)c1ccc(CO)cc1: 0.0294

====

- runConditions: in n-propanol, 298.15 K
reportedProperty: solubility (mole fraction)

- O=C(O)c1ccc(CO)cc1: 0.0345

====

- runConditions: in ethanol, 303.15 K
reportedProperty: solubility (mole fraction)

- O=C(O)c1ccc(CO)cc1: 0.0468

====

- runConditions: in isopropyl acetate, 283.15 K
reportedProperty: solubility (mole fraction)

- O=C(O)c1ccc(CO)cc1: 0.00324

====

- runConditions: in water, 308.15 K
reportedProperty: solubility (mole fraction)

- O=C(O)c1ccc(CO)cc1: 0.000641

====

- runConditions: in ethyl formate, 308.15 K
reportedProperty: solubility (mole fraction)

• O=C(O)c1ccc(CO)cc1 = 0.00535

====

- runConditions: in n-propanol, 303.15 K
reportedProperty: solubility (mole fraction)

• O=C(O)c1ccc(CO)cc1 = 0.0367

====

- runConditions: in methanol, 298.15 K
reportedProperty: solubility (mole fraction)

- O=C(O)c1ccc(CO)cc1: 0.0414

====

- runConditions: in isopropanol, 298.15 K
reportedProperty: solubility (mole fraction)

- O=C(O)c1ccc(CO)cc1: 0.0391

====

- runConditions: in isopropanol, 293.15 K
reportedProperty: solubility (mole fraction)

* O=C(O)c1ccc(CO)cc1 | 0.0337

====

- runConditions: in water, 283.15 K
reportedProperty: solubility (mole fraction)

- O=C(O)c1ccc(CO)cc1: 0.000244

====

- runConditions: in ethyl acetate, 283.15 K
reportedProperty: solubility (mole fraction)

* O=C(O)c1ccc(CO)cc1 | 0.00475

====

- runConditions: in ethanol, 283.15 K
reportedProperty: solubility (mole fraction)

• O=C(O)c1ccc(CO)cc1 = 0.0289

====

- runConditions: in isopropyl acetate, 318.15 K
reportedProperty: solubility (mole fraction)

• O=C(O)c1ccc(CO)cc1 = 0.0127

====

- runConditions: in isopropanol, 318.15 K
reportedProperty: solubility (mole fraction)

- O=C(O)c1ccc(CO)cc1: 0.0697

====

- runConditions: in n-propanol, 323.15 K
reportedProperty: solubility (mole fraction)

• O=C(O)c1ccc(CO)cc1 = 0.0705

====

- runConditions: in isopropanol, 303.15 K
reportedProperty: solubility (mole fraction)

- O=C(O)c1ccc(CO)cc1: 0.044

====

- runConditions: in ethyl acetate, 318.15 K
reportedProperty: solubility (mole fraction)

- O=C(O)c1ccc(CO)cc1: 0.0161

====

- runConditions: in isopropyl acetate, 323.15 K
reportedProperty: solubility (mole fraction)

- O=C(O)c1ccc(CO)cc1: 0.0155

====

- runConditions: in water, 298.15 K
reportedProperty: solubility (mole fraction)

• O=C(O)c1ccc(CO)cc1 = 0.00039

====

- runConditions: in isopropanol, 323.15 K
reportedProperty: solubility (mole fraction)

* O=C(O)c1ccc(CO)cc1 | 0.0826

====

- runConditions: in n-propanol, 318.15 K
reportedProperty: solubility (mole fraction)

- O=C(O)c1ccc(CO)cc1: 0.0591

====

- runConditions: in n-propanol, 308.15 K
reportedProperty: solubility (mole fraction)

* O=C(O)c1ccc(CO)cc1 | 0.0446

====

- runConditions: in n-propanol, 313.15 K
reportedProperty: solubility (mole fraction)

* O=C(O)c1ccc(CO)cc1 | 0.0516

====

- runConditions: in water, 313.15 K
reportedProperty: solubility (mole fraction)

* O=C(O)c1ccc(CO)cc1 | 0.000816

====

- runConditions: in n-propanol, 293.15 K
reportedProperty: solubility (mole fraction)

- O=C(O)c1ccc(CO)cc1: 0.0298

====

- runConditions: in ethyl formate, 283.15 K
reportedProperty: solubility (mole fraction)

• O=C(O)c1ccc(CO)cc1 = 0.00168

====

- runConditions: in ethyl acetate, 298.15 K
reportedProperty: solubility (mole fraction)

• O=C(O)c1ccc(CO)cc1 = 0.00797

====

- runConditions: in ethanol, 308.15 K
reportedProperty: solubility (mole fraction)

- O=C(O)c1ccc(CO)cc1: 0.0529
